Entry source: paper PMC7718273

Assay: Pharmacokinetic study in mice
Format: in vivo, C57BL/6J mice
Conditions: male, C57BL/6J, plasma, po; mouse, p.o. 100 mg/kg
Description: Mice were administered with BR103354 either p.o. […] (2 mg/kg). […] These samples were then centrifuged at 13,000 rpm for 10 min to obtain plasma. […] Samples were analyzed on an API 4500 Qtrap LC‐MS/MS system (Applied Biosystems/MDS Sciex, Toronto, Canada) coupled with Agilent 1200 HPLC (Agilent Technologies, Santa Clara, CA). Plasma concentration–time data were analyzed by non-compartmental method using the nonlinear least-squares regression program WinNonlin (Pharsight, Mountain View, CA).
Parameter measured: AUC(0-t)
Remember to put the unit after the number in your answer.

Sure, the documented AUC(0-t) for N#Cc1ccc(Cc2nc(C(=O)NCC(=O)N3CC(F)(F)C[C@H]3C#N)cs2)cc1 [BR103354] is 17000 ng·h/mL
